Hey, just so you know, these numbers are from patent US7375109B2.

Target: human FSH receptor (Homo sapiens, UniProt P23945)
Sequence (P23945 18-695): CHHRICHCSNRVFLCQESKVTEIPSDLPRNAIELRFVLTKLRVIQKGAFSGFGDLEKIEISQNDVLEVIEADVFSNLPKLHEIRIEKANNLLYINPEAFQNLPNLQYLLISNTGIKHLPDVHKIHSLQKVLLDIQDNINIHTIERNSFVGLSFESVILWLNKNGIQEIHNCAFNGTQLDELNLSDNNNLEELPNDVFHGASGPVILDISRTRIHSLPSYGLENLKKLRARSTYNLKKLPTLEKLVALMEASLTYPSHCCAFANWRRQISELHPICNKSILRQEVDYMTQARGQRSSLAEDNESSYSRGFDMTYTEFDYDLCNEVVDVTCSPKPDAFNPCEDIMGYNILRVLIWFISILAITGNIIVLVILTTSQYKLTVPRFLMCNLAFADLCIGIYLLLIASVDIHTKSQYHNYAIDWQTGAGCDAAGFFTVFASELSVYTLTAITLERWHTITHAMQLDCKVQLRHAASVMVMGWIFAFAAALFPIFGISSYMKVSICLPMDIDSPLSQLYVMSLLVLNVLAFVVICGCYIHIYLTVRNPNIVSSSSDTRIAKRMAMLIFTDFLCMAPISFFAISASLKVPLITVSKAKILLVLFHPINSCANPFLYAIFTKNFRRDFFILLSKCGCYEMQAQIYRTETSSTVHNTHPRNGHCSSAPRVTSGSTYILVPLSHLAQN
Assay: CHO-FSH in vitro bioactivity (CRE-luciferase reporter)
Details: CHO cells transfected with human FSH receptor and luciferase reporter gene
Measured log10 of EC50, listed per entry.
On a log10 scale: recorded EC50, unit µM.

Below, 2 molecules whose answers are already recorded.
Qu. Requested read-out: log10 of EC50. Entry: C=CCOc1nc(-c2cccc(NC(=O)CN(CC)CCOC)c2)c2c(N)c(C(=O)NC(C)(C)C)sc2n1 [Example 23]
Ans. 0.24

Qu. Requested read-out: log10 of EC50. Entry: COC(=O)[C@H](NCC(=O)Nc1cccc(-c2nc(SC)nc3sc(C(=O)NC(C)(C)C)c(N)c23)c1)C(C)C [Example 5]
Ans. -0.46

Let's switch to this molecule now.
Qu. Requested read-out: log10 of EC50. Entry: COC(=O)CNCC(=O)Nc1cccc(-c2nc(-c3ccccc3)nc3sc(C(=O)NC(C)(C)C)c(N)c23)c1 [Example 10]
Ans. 0.39

---

Biological target: human FSH receptor (Homo sapiens, UniProt P23945)
Sequence (P23945 18-695): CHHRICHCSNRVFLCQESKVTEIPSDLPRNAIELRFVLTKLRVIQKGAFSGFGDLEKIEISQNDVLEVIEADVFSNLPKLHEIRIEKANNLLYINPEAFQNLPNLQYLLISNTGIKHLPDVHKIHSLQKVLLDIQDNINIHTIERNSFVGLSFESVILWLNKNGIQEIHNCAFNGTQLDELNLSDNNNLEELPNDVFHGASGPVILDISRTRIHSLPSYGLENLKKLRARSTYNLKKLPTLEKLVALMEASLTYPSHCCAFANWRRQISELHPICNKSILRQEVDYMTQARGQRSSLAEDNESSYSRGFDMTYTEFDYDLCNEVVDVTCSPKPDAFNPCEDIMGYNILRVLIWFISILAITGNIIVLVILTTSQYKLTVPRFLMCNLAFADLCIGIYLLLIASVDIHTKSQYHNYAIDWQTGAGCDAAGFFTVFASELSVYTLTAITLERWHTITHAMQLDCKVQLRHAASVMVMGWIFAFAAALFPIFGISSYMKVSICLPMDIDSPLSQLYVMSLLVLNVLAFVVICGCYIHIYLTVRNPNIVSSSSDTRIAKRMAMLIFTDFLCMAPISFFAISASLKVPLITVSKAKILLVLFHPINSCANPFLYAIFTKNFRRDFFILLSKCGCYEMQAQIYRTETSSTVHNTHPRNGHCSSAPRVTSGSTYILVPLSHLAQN
Assay: CHO-FSH in vitro bioactivity (CRE-luciferase reporter)
Conditions: CHO cells transfected with human FSH receptor and luciferase reporter gene
MEASURED_PARAMETER: pEC50
Give only the number. pEC50 is defined as minus log10 of concentration in molar units.

Below, 4 compounds whose answers are already recorded.
Qu. Requested read-out: pEC50. Entry: CSc1nc(-c2cccc(NC(=O)CN(C)CCO)c2)c2c(N)c(C(=O)NC(C)(C)C)sc2n1
Ans. 7.24

Qu. Requested read-out: pEC50. Entry: CCNc1nc(-c2cccc(NC(=O)CN(CC)CCOC)c2)c2c(N)c(C(=O)NC(C)(C)C)sc2n1
Ans. 5.90

Qu. Requested read-out: pEC50. Entry: CCN(CCO)CC(=O)Nc1cccc(-c2nc(-c3ccccc3)nc3sc(C(=O)NC(C)(C)C)c(N)c23)c1
Ans. 6.22

Qu. Requested read-out: pEC50. Entry: CCN(CCOC)CC(=O)Nc1cccc(-c2nc(OC(C)C)nc3sc(C(=O)NC(C)(C)C)c(N)c23)c1
Ans. 5.60

More entries:
Qu. Requested read-out: pEC50. Entry: COC(=O)CNCC(=O)Nc1cccc(-c2nc(-c3ccco3)nc3sc(C(=O)NC(C)(C)C)c(N)c23)c1
Ans. 5.59

Qu. Requested read-out: pEC50. Entry: CN(CCO)CC(=O)Nc1cccc(-c2nc(-c3ccco3)nc3sc(C(=O)NC(C)(C)C)c(N)c23)c1
Ans. 6.21

Qu. Requested read-out: pEC50. Entry: CN(CCO)CC(=O)Nc1cccc(-c2nc(N(C)C)nc3sc(C(=O)NC(C)(C)C)c(N)c23)c1
Ans. 5.79
